Tested on: SEM cells
test-summary: cell viability relative to DMSO control; higher = less cytotoxic
settings: RPMI 5 mM glucose + 10% dialyzed FBS; 48 h; 0.19 µM

compound	cell viability
C[N]1N=CC2=C1C=C(C(=C2)OC3=CC=C(NC(=O)\C4=C\C=C(\C)N(C4=O)C5=CC=C(F)C=C5)C=C3F)C6=C[NH]N=C6	52.1%
NC(=O)c1cnc(-c2ccc(C3(N)CCC3)cc2)c(-c2ccccc2)c1	120%
OC1=CC2=C(C(=O)\C=C(/O2)C3=CC=CC=C3)C(=C1O)O	99.5%
C=CCc1cc(OC)c(O)c(C(=O)NCCO)c1	113%
CC(C[N+](C)(C)C)OC(N)=O (stereo not given)	107%
O=C(C[C@@H]1C/C=C\CCC(=O)O[C@H](c2ccccc2)CNC1=O)NCc1ccc(Cl)cc1	128%
COc1ccc(CC2c3cc(OC)c(OC)cc3CC[N+]2(C)CCC(=O)OCCCCCOC(=O)CC[N+]2(C)CCc3cc(OC)c(OC)cc3C2Cc2ccc(OC)c(OC)c2)cc1OC (stereo not given)	93.8%
C=CC(=O)Nc1cccc(Oc2nc(Nc3ccc(N4CCN(C)CC4)cc3OC)ncc2Cl)c1	72.9%
CN(c1nccc(=O)[nH]1)C1CCN(c2nc3ccccc3n2Cc2ccc(F)cc2)CC1	113%
CCOc1cc(/C=C2/C(=O)N(c3ccccc3)N=C2C)cc(Cl)c1OCC(=O)OC	90.6%
